Tested on: HT-29
Test: Inhibition of human colon carcinoma HT-29 cell proliferation
Assay type: functional, cell-based
READOUT: IC50 (nM)

CCN(CC)CCCCNc1ncc2cc(-c3c(Cl)cccc3Cl)c(NC(=O)Nc3ccccc3)nc2n1 | 800
CCNC(=O)Nc1nc2nc(NCCCN3CCN(C)CC3)ncc2cc1-c1c(Cl)cccc1Cl | 900
CCNC(=O)Nc1nc2nc(NCCCCN(CC)CC)ncc2cc1-c1c(Cl)cccc1Cl | 1170

[a] CCN(CC)CCCCNc1ncc2cc(-c3c(Cl)cccc3Cl)c(NC(=O)NC(C)(C)C)nc2n1
[b] CN1CCN(CCCNc2ncc3cc(-c4c(Cl)cccc4Cl)c(NC(=O)Nc4ccccc4)nc3n2)CC1
[c] CN1CCN(CCCNc2ncc3cc(-c4c(Cl)cccc4Cl)c(NC(=O)NC(C)(C)C)nc3n2)CC1
query: # rank_down: sort by IC50, max first Reply format: the labels, ordered as requested.
result: c, b, a

----------
Biological target: Insulin receptor (Homo sapiens)
Sequence (P06213 28-758 limits assumed): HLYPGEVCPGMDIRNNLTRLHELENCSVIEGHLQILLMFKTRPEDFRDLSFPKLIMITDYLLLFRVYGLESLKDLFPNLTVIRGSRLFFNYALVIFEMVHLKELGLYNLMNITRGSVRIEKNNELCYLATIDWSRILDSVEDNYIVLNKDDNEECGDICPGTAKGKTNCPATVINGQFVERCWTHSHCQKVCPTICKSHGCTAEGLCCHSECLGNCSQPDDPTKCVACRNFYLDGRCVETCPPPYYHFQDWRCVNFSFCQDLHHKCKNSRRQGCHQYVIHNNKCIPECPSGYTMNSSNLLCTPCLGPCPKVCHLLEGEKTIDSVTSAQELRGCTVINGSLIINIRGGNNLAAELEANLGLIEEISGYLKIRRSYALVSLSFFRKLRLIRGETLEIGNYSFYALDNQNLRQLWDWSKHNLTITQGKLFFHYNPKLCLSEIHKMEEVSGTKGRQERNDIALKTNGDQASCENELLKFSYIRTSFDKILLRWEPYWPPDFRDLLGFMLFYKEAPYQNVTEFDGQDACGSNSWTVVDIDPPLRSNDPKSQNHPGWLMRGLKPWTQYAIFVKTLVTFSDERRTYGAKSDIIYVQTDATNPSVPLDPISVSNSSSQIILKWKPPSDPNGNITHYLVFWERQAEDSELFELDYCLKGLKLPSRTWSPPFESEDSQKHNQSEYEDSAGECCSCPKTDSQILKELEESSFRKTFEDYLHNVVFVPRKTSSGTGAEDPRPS
Sequence (P06213 763-1382 limits assumed): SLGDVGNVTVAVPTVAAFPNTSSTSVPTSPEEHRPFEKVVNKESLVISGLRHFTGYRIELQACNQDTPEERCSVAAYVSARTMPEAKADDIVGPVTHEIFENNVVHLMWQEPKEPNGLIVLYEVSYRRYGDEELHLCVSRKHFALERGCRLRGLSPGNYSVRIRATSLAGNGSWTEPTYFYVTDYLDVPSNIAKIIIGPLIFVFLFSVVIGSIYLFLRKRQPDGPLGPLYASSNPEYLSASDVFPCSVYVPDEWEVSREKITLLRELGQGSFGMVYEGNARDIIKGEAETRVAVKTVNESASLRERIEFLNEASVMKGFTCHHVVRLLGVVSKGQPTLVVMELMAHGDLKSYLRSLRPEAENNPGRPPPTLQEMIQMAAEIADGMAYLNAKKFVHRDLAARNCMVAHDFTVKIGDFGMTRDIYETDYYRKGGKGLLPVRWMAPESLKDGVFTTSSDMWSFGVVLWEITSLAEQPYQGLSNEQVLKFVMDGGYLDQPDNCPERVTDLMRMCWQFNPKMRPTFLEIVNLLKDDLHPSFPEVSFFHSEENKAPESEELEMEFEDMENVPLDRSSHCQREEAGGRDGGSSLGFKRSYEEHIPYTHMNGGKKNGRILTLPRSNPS
pIC50: −log10 of the molar value.
READOUT: pIC50

query: Quick one: pIC50 for CCN(CC)CCCCNc1ncc2cc(-c3c(Cl)cccc3Cl)c(NC(=O)Nc3ccccc3)nc2n1 ?
result: < 4.30

----------
Target: Platelet-derived growth factor receptor beta (Mus musculus)
Assay: Ability to prevent phosphorylation of isolated mouse PDGF receptor beta
IC50 for assorted molecules

CN1CCN(CCCNc2ncc3cc(-c4c(Cl)cccc4Cl)c(NC(=O)CC(C)(C)C)nc3n2)CC1 | > 50 µM
Cc1cc(C)c(C)c(-c2cc3cnc(N)nc3nc2N)c1C | > 50 µM

query: For the record Cc1cc(C)c(C)c(-c2cc3cnc(N)nc3nc2NC(=O)NC(C)(C)C)c1C , what value of IC50 is listed for Platelet-derived growth factor receptor beta (Mus musculus)?
result: > 50 µM

----------
The next entries give measured IC50 for Proto-oncogene tyrosine-protein kinase Src (Gallus gallus, UniProt P00523).
READOUT: IC50 (nM)

CN1CCN(CCCNc2ncc3cc(-c4c(Cl)cccc4Cl)c(NC(=S)Nc4ccccc4)nc3n2)CC1 | 22
CN1CCN(CCCNc2ncc3cc(-c4c(Cl)cccc4Cl)c(NS(=O)(=O)c4ccccc4)nc3n2)CC1 | 22

[a] CN(C)CCCN(C)c1ncc2cc(-c3c(Cl)cccc3Cl)c(NC(=O)NC(C)(C)C)nc2n1
[b] CN1CCN(CCCNc2ncc3cc(-c4c(Cl)cccc4Cl)c(NC(=O)Nc4cccc5ccccc45)nc3n2)CC1
[c] CCNC(=O)Nc1nc2nc(NCCN(CC)CC)ncc2cc1-c1c(Cl)cccc1Cl
query: # rank_down: sort by IC50, max first Reply format: the labels, ordered as requested.
result: c, a, b
(c: 2600 nM, a: 1100 nM, b: 130 nM)

----------
Molecular target: Platelet-derived growth factor receptor beta (Mus musculus, UniProt P05622)
Sequence (P05622 whole entry): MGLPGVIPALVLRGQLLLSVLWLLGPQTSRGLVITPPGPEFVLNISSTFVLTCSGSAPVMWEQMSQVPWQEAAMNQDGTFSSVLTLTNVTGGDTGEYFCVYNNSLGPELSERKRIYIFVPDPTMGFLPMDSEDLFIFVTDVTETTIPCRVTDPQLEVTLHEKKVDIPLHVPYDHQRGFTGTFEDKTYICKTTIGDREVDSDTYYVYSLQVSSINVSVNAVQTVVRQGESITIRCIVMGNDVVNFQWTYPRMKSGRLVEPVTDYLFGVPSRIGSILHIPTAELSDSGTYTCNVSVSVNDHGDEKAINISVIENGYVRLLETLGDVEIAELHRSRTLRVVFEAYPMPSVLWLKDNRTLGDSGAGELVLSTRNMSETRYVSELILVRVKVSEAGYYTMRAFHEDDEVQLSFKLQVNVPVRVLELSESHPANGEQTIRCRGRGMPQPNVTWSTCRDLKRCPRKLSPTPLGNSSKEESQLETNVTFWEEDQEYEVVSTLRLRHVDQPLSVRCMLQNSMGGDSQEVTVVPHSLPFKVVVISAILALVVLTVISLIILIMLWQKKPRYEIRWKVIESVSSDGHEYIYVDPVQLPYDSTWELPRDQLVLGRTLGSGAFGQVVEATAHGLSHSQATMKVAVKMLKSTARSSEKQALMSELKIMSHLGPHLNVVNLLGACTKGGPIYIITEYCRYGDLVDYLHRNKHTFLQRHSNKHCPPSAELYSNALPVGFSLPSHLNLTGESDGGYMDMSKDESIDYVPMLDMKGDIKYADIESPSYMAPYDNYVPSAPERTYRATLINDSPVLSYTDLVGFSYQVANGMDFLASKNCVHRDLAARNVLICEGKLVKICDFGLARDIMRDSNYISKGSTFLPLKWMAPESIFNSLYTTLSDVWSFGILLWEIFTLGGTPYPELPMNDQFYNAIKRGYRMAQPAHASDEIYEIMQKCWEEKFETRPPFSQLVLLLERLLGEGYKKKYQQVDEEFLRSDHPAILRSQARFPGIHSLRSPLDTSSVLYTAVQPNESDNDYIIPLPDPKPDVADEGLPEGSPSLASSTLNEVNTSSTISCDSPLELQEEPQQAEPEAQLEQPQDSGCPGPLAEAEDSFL
Test: Ability to prevent phosphorylation of isolated mouse PDGF receptor beta
READOUT: IC50

Would you please look over these solved cases?
CCN(CC)CCCNc1ncc2cc(-c3c(Br)cccc3Br)c(N)nc2n1 | > 50 µM
CCN(CC)CCCNc1ncc2cc(-c3c(Cl)cccc3Cl)c(/N=C\N(C)C)nc2n1 | > 50 µM

With those in mind, consider the next molecule.
query: Quick one: IC50 for CC/N=C(\N)Nc1nc2nc(NCCCN(CC)CC)ncc2cc1-c1c(Cl)cccc1Cl ?
result: > 50 µM
